The reported numbers originate from the supplement of paper PMC10567573.

B1: PBXIP1 (parent)
chain: LQQLRARLQGLEADCVRGPDGVCL

variants of: B1; assay: protein stability index of a GFP-peptide fusion (GPS, HEK-293T) (PSI 1-6); higher = more stable; details: c terminus: a fixed tail appended;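 also: lentivirally expressed fusions sorted by FACS into six bins by GFP to DsRed ratio, PSI derived from sequencing read proportions per bin multiplied by bin number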
This section presents variants with their documented protein stability index values.
property label: protein stability index

[[record]]
seq = "LQQLRARLQGLEADCVRGPDGVCI [L24I]"
value_observed = 1.94

[[record]]
seq = "LQQLRAGLQGLEADCVRGPDGVCL [R7G]"
value_observed = 3.55

[[record]]
seq = "LQQLRARLQGLEEDCVRGPDGVCL [A13E]"
value_observed = 2.97

[[record]]
seq = "LQQLRARLQGLEADCVRGPDGVYL [C23Y]"
value_observed = 2.29

[[record]]
seq = "RQQLRARLQGLEADCVRGPDGVCL [L1R]"
value_observed = 3.76

[[record]]
seq = "LQQLRARLQGLEADCWRGPDGVCL [V16W]"
value_observed = 1.46

[[record]]
seq = "LQQLRARLQGLEADCPRGPDGVCL [V16P]"
value_observed = 1.64

[[record]]
seq = "LQQLRARLRGLEADCVRGPDGVCL [Q9R]"
value_observed = 1.17

[[record]]
seq = "LQQLRARPQGLEADCVRGPDGVCL [L8P]"
value_observed = 3.56

[[record]]
seq = "LQQLRAPLQGLEADCVRGPDGVCL [R7P]"
value_observed = 2.59

[[record]]
seq = "LQQLRARLQGFEADCVRGPDGVCL [L11F]"
value_observed = 2.25

[[record]]
seq = "LQQLRARLQGDEADCVRGPDGVCL [L11D]"
value_observed = 4.28

[[record]]
seq = "LQQLRARMQGLEADCVRGPDGVCL [L8M]"
value_observed = 2.05

[[record]]
seq = "LQQLRARLQGLEADQVRGPDGVCL [C15Q]"
value_observed = 1.99

[[record]]
seq = "LQQLRARLQGLEADCVRGPDGVWL [C23W]"
value_observed = 3.01

[[record]]
seq = "LQQLRARLQGLEADCVRGPVGVCL [D20V]"
value_observed = 1.8

[[record]]
seq = "LQRLRARLQGLEADCVRGPDGVCL [Q3R]"
value_observed = 3.08

[[record]]
seq = "LQQLRAVLQGLEADCVRGPDGVCL [R7V]"
value_observed = 2.03

[[record]]
seq = "LQPLRARLQGLEADCVRGPDGVCL [Q3P]"
value_observed = 3.53

[[record]]
seq = "LQQLRARLQGSEADCVRGPDGVCL [L11S]"
value_observed = 3.09

[[record]]
seq = "LQMLRARLQGLEADCVRGPDGVCL [Q3M]"
value_observed = 3.04

[[record]]
seq = "LQQLRARLQGLEADCVKGPDGVCL [R17K]"
value_observed = 1.86

